Tested on: Avena sativa
Assay: Weed control pre-emergence (greenhouse pot test)
Assay type: in vivo
Conditions: pre-emergence, 2,5 kg a.i./ha, visual rating after 3-4 weeks
# Lookup of reported Herbizide Wirkung im Vorauflauf AS keyed by entry

The examples below pair each entry with its known result.
{"compound": "CP(C)(=O)COC(OC(=O)c1cc(Oc2ccc(C(F)(F)F)cc2Cl)ccc1[N+](=O)[O-])C(Cl)(Cl)Cl (centres unmarked)", "result_type": "Herbizide Wirkung im Vorauflauf AS", "result": "4 (= 60 - 80 % Wirkung bzw. Schaden)"}
{"compound": "CCOC(=O)C(C)(C)OC(OC(=O)c1cc(Oc2ccc(C(F)(F)F)cc2Cl)ccc1[N+](=O)[O-])C(Cl)(Cl)Cl (centres unmarked)", "result_type": "Herbizide Wirkung im Vorauflauf AS", "result": "5 (= 80 - 100 % Wirkung bzw. Schaden)"}

Request: Please supply the value of reported Herbizide Wirkung im Vorauflauf AS for the item CCOC(=O)C(C)OC(OC(=O)c1cc(Oc2ccc(C(F)(F)F)cc2Cl)ccc1[N+](=O)[O-])C(Cl)(Cl)Cl (centres unmarked)
Result: 5 (= 80 - 100 % Wirkung bzw. Schaden)

Request: Please supply the value of reported Herbizide Wirkung im Vorauflauf AS for the item COC(=O)CC(OC(OC(=O)c1cc(Oc2ccc(C(F)(F)F)cc2Cl)ccc1[N+](=O)[O-])C(Cl)(Cl)Cl)C(=O)OC (centres unmarked)
Result: 5 (= 80 - 100 % Wirkung bzw. Schaden)

Request: Please supply the value of reported Herbizide Wirkung im Vorauflauf AS for the item CC1(C)OCC(COC(OC(=O)c2cc(Oc3ccc(C(F)(F)F)cc3Cl)ccc2[N+](=O)[O-])C(Cl)(Cl)Cl)O1 (centres unmarked)
Result: 1 (= 0 - 20 % Wirkung bzw. Schaden)

Request: Please supply the value of reported Herbizide Wirkung im Vorauflauf AS for the item O=C(OC(OCC(F)(F)C(F)F)C(Cl)(Cl)Cl)c1cc(Oc2ccc(C(F)(F)F)cc2Cl)ccc1[N+](=O)[O-] (centres unmarked)
Result: 3 (= 40 - 60 % Wirkung bzw. Schaden)

Request: Please supply the value of reported Herbizide Wirkung im Vorauflauf AS for the item Cc1ncsc1COC(OC(=O)c1cc(Oc2ccc(C(F)(F)F)cc2Cl)ccc1[N+](=O)[O-])C(Cl)(Cl)Cl (centres unmarked)
Result: 2 (= 20 - 40 % Wirkung bzw. Schaden)

---

# Lookup of reported Herbizide Wirkung im Vorauflauf AS keyed by entry
Test system: Avena sativa
Test: Weed control pre-emergence (greenhouse pot test)
Format: in vivo
Settings: pre-emergence, 2,5 kg a.i./ha, visual rating after 3-4 weeks

The examples below pair each entry with its known result.
{"compound": "CCOC(OC(=O)c1cc(Oc2ccc(C(F)(F)F)cc2Cl)ccc1[N+](=O)[O-])C(Cl)(Cl)Cl (stereo not shown)", "result_type": "Herbizide Wirkung im Vorauflauf AS", "result": "2 (= 20 - 40 % Wirkung bzw. Schaden)"}
{"compound": "CCOC(=O)COC(OC(=O)c1cc(Oc2ccc(C(F)(F)F)cc2Cl)ccc1[N+](=O)[O-])C(Cl)(Cl)Cl (stereo not shown)", "result_type": "Herbizide Wirkung im Vorauflauf AS", "result": "4 (= 60 - 80 % Wirkung bzw. Schaden)"}
{"compound": "CCOC(=O)C(C)OC(OC(=O)c1cc(Oc2c(Cl)cc(C(F)(F)F)cc2Cl)ccc1[N+](=O)[O-])C(Cl)(Cl)Cl (stereo not shown)", "result_type": "Herbizide Wirkung im Vorauflauf AS", "result": "2 (= 20 - 40 % Wirkung bzw. Schaden)"}

Request: Please supply the value of reported Herbizide Wirkung im Vorauflauf AS for the item N#CCCSCCOC(OC(=O)c1cc(Oc2ccc(C(F)(F)F)cc2Cl)ccc1[N+](=O)[O-])C(Cl)(Cl)Cl (stereo not shown)
Result: 4 (= 60 - 80 % Wirkung bzw. Schaden)

Origin of measurements: patent EP0217101A1
